TARGET: B-Raf kinase (SEQ. ID NO: 2) (Homo sapiens (Human), UniProt P15056)
Sequence (P15056 416-766): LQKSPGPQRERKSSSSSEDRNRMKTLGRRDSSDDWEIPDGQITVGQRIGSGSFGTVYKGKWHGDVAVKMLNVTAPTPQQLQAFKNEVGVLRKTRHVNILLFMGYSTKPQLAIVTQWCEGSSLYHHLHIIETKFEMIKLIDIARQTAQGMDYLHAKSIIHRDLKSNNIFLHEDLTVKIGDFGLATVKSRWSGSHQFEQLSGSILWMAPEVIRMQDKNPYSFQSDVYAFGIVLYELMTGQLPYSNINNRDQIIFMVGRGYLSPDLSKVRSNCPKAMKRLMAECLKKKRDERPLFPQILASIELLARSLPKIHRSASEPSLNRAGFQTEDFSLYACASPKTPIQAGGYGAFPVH
TEST METHOD NOTES: Biochemical Assay for B-Raf (1)
CONDITION CONTEXT: Table J, assay version (1); read-out: BRAF (1) IC50
MEASURED ATTRIBUTE: IC50

RECORD SMILES	TARGET	IC50
CC(=O)Nc1cc(-c2cc(-c3cc(NC(=O)c4ccnc(C(C)(C)C#N)c4)ccc3C)ccn2)ccn1	B-Raf kinase (SEQ. ID NO: 2) (Homo sapiens (Human), UniProt P15056)	≤ 100 nM
CNC(=O)c1cc(-c2ccnc(-c3cc(NC(=O)c4ccnc(C(C)(C)OC)c4)ccc3C)n2)ccn1	B-Raf kinase (SEQ. ID NO: 2) (Homo sapiens (Human), UniProt P15056)	100 to 500 nM
Cc1ccc(NC(=O)c2ccnc(C(F)(F)F)c2)cc1-c1ccnc(-c2ccnc(NC(=O)CC#N)c2)n1	B-Raf kinase (SEQ. ID NO: 2) (Homo sapiens (Human), UniProt P15056)	≤ 100 nM
COC(C)(C)C(=O)Nc1cc(-c2cccc(-c3cc(NC(=O)c4ccnc(C(C)(C)C#N)c4)cnc3C)c2)ncn1	B-Raf kinase (SEQ. ID NO: 2) (Homo sapiens (Human), UniProt P15056)	1000 to 10000 nM
COC(=O)Nc1cc(-c2cc(-c3cc(NC(=O)c4ccnc(C(C)(C)C#N)c4)c(F)cc3C)ccn2)ccn1	B-Raf kinase (SEQ. ID NO: 2) (Homo sapiens (Human), UniProt P15056)	≤ 100 nM

Prompt: // fetch IC50 given entry Cc1ccc(NC(=O)c2ccnc(C(F)(F)F)c2)cc1-c1ccnc(-c2ccnc(NC=O)c2)c1
Response: ≤ 100 nM

Prompt: Identify measured IC50 corresponding to CO[C@H]1CC[C@H](C(=O)Nc2cnc(C)c(-c3cccc(-c4cc(NC(=O)C5CC5)ncn4)c3)c2)CC1
Response: 500 to 1000 nM

Prompt: Identify IC50 associated with the compound Cc1ccc(NC(=O)c2ccnc(C(C)(C)C#N)c2)cc1-c1cncc(-c2ccnc(NC=O)c2)n1
Response: ≤ 100 nM

Prompt: Determine its reported IC50: Cc1ccc(NC(=O)c2ccnc(C3CC3)c2)cc1-c1ccnc(-c2ccnc(NC(=O)C3CC3)c2)n1
Response: ≤ 100 nM
